Measurement Target: CYP 2D6 (Homo sapiens)
Sequence (P10635 whole entry): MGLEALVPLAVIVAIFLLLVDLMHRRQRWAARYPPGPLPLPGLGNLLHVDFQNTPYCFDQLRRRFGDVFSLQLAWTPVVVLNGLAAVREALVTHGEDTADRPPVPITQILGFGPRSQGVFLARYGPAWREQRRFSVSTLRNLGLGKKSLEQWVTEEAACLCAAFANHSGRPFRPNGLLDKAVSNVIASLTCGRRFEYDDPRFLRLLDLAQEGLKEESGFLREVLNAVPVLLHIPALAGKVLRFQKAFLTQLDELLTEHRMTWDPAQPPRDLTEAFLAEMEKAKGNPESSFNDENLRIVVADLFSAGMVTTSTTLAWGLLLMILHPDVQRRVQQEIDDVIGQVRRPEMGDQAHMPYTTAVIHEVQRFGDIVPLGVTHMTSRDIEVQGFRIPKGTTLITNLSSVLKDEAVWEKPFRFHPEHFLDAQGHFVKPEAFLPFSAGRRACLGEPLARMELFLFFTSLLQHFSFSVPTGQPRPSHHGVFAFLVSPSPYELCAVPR
Test Summary: Inhibition of cytochrome P450 enzyme in human liver microsomes, CYP 2D6
Experimental Parameters: read-out: CYP 2D6 IC50; human liver microsomes; substrate Dextromethorphan

{"Compound": "COc1cccc([C@]2(O)CCN(S(=O)(=O)Cc3ccccc3)C[C@H]2CN(C)C)c1.Cl [Example 20 of CN201911076305.X, hydrochloride, reference compound]", "IC50 [µM]": 9.61}

###

# Fecal weight per entry
Tested on: ICR mice
Test Summary: Evaluation of side effects of constipation (defecation time, number, weight)
Assay type: in vivo
Experimental Parameters: 1 mg/kg; within 5 hours; x ± SE
Structures can show the parent of a compound that is named as a salt.
Readout Name: Fecal weight (g)

{"Compound": "[2H]C([2H])([2H])N(C[C@@H]1CN(S(=O)(=O)Cc2ccccc2)CC[C@@]1(O)c1cccc(OC)c1)C([2H])([2H])[2H] [II-3hydrochloride]", "Readout Name": "Fecal weight", "Readout Units": "g", "Test Result": 0.3396}
{"Compound": "[2H]C([2H])([2H])N(C)C[C@@H]1CN(S(=O)(=O)Cc2ccccc2)CC[C@@]1(O)c1cccc(OC)c1 [II-1hydrochloride]", "Readout Name": "Fecal weight", "Readout Units": "g", "Test Result": 0.3682}
{"Compound": "COc1cccc([C@]2(O)CCN(S(=O)(=O)Cc3ccccc3)C[C@H]2CN(C)C)c1.Cl [Example 20 of CN201911076305.X, reference compound]", "Readout Name": "Fecal weight", "Readout Units": "g", "Test Result": 0.1243}
{"Compound": "[2H]C([2H])([2H])N(C[C@@H]1CN(C(=O)Cc2cc(F)c(F)cc2F)CC[C@@]1(O)c1cccc(OC)c1)C([2H])([2H])[2H] [II-9hydrochloride]", "Readout Name": "Fecal weight", "Readout Units": "g", "Test Result": 0.3399}
{"Compound": "[2H]C([2H])([2H])Oc1cccc([C@]2(O)CCN(S(=O)(=O)Cc3ccccc3)C[C@H]2CN(C([2H])([2H])[2H])C([2H])([2H])[2H])c1 [II-5hydrochloride]", "Readout Name": "Fecal weight", "Readout Units": "g", "Test Result": 0.3389}
{"Compound": "[2H]C([2H])([2H])Oc1cccc([C@]2(O)CCN(C(=O)Cc3cc(F)c(F)cc3F)C[C@H]2CN(C([2H])([2H])[2H])C([2H])([2H])[2H])c1 [II-11hydrochloride]", "Readout Name": "Fecal weight", "Readout Units": "g", "Test Result": 0.3402}
{"Compound": "[2H]C([2H])([2H])N(C)C[C@@H]1CN(C(=O)Cc2cc(F)c(F)cc2F)CC[C@@]1(O)c1cccc(OC)c1 [II-7hydrochloride]", "Readout Name": "Fecal weight", "Readout Units": "g", "Test Result": 0.3846}

###

Tested on: ICR mice
Test Summary: Evaluation of side effects of constipation (defecation time, number, weight)
Assay type: in vivo
Experimental Parameters: 1 mg/kg; 10 mice per group; within 5 hours
Structures can show the parent of a compound that is named as a salt.
Measured Number of defecating animals by item

{"Compound": "[2H]C([2H])([2H])Oc1cccc([C@]2(O)CCN(S(=O)(=O)Cc3ccccc3)C[C@H]2CN(C([2H])([2H])[2H])C([2H])([2H])[2H])c1 [II-5hydrochloride]", "Number of defecating animals": 8}
{"Compound": "COc1cccc([C@]2(O)CCN(S(=O)(=O)Cc3ccccc3)C[C@H]2CN(C)C)c1.Cl [Example 20 of CN201911076305.X, reference compound]", "Number of defecating animals": 9}
{"Compound": "[2H]C([2H])([2H])N(C)C[C@@H]1CN(S(=O)(=O)Cc2ccccc2)CC[C@@]1(O)c1cccc(OC)c1 [II-1hydrochloride]", "Number of defecating animals": 9}
{"Compound": "[2H]C([2H])([2H])N(C[C@@H]1CN(S(=O)(=O)Cc2ccccc2)CC[C@@]1(O)c1cccc(OC)c1)C([2H])([2H])[2H] [II-3hydrochloride]", "Number of defecating animals": 8}
{"Compound": "[2H]C([2H])([2H])N(C)C[C@@H]1CN(C(=O)Cc2cc(F)c(F)cc2F)CC[C@@]1(O)c1cccc(OC)c1 [II-7hydrochloride]", "Number of defecating animals": 9}
{"Compound": "[2H]C([2H])([2H])N(C[C@@H]1CN(C(=O)Cc2cc(F)c(F)cc2F)CC[C@@]1(O)c1cccc(OC)c1)C([2H])([2H])[2H] [II-9hydrochloride]", "Number of defecating animals": 8}
{"Compound": "[2H]C([2H])([2H])Oc1cccc([C@]2(O)CCN(C(=O)Cc3cc(F)c(F)cc3F)C[C@H]2CN(C([2H])([2H])[2H])C([2H])([2H])[2H])c1 [II-11hydrochloride]", "Number of defecating animals": 8}

###

Tested on: ICR mice
Test Summary: Evaluation of side effects of constipation (defecation time, number, weight)
Format: in vivo
Experimental Parameters: 1 mg/kg; only animals that defecate within 5 hours; x ± SE
Structures can show the parent of a compound that is named as a salt.

{"Molecule": "[2H]C([2H])([2H])Oc1cccc([C@]2(O)CCN(S(=O)(=O)Cc3ccccc3)C[C@H]2CN(C([2H])([2H])[2H])C([2H])([2H])[2H])c1 [II-5hydrochloride]", "Readout Units": "%", "water content of feces": 42.7}
{"Molecule": "COc1cccc([C@]2(O)CCN(S(=O)(=O)Cc3ccccc3)C[C@H]2CN(C)C)c1.Cl [Example 20 of CN201911076305.X, reference compound]", "Readout Units": "%", "water content of feces": 19.6}
{"Molecule": "[2H]C([2H])([2H])N(C[C@@H]1CN(S(=O)(=O)Cc2ccccc2)CC[C@@]1(O)c1cccc(OC)c1)C([2H])([2H])[2H] [II-3hydrochloride]", "Readout Units": "%", "water content of feces": 43.0}
{"Molecule": "[2H]C([2H])([2H])N(C[C@@H]1CN(C(=O)Cc2cc(F)c(F)cc2F)CC[C@@]1(O)c1cccc(OC)c1)C([2H])([2H])[2H] [II-9hydrochloride]", "Readout Units": "%", "water content of feces": 43.2}
{"Molecule": "[2H]C([2H])([2H])Oc1cccc([C@]2(O)CCN(C(=O)Cc3cc(F)c(F)cc3F)C[C@H]2CN(C([2H])([2H])[2H])C([2H])([2H])[2H])c1 [II-11hydrochloride]", "Readout Units": "%", "water content of feces": 43.5}
{"Molecule": "[2H]C([2H])([2H])N(C)C[C@@H]1CN(S(=O)(=O)Cc2ccccc2)CC[C@@]1(O)c1cccc(OC)c1 [II-1hydrochloride]", "Readout Units": "%", "water content of feces": 43.5}
{"Molecule": "[2H]C([2H])([2H])N(C)C[C@@H]1CN(C(=O)Cc2cc(F)c(F)cc2F)CC[C@@]1(O)c1cccc(OC)c1 [II-7hydrochloride]", "Readout Units": "%", "water content of feces": 44.8}

###

Each record here notes measured δOR binding rate.
Measurement Target: δOR (Homo sapiens, UniProt P41143)
Construct: expressed in transfected cells; host or cells: CHO cells
Sequence (P41143 whole entry): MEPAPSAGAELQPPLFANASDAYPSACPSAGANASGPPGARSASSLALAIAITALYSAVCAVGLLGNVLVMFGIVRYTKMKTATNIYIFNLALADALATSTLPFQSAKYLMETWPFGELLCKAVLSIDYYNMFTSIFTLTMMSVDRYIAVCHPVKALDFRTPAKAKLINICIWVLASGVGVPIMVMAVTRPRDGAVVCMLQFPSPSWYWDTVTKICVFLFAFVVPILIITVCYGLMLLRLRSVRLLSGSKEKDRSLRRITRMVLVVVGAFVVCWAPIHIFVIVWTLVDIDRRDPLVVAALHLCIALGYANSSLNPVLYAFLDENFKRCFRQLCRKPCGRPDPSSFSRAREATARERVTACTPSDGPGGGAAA
Test Summary: Opioid receptor competitive binding test, δOR
Experimental Parameters: compound at 10 μM; [3H]-labeled ligand; CHO cell membranes; ± SD of three measurements
Counter-ions that a name gives are not always drawn.

{"Compound": "[2H]C([2H])([2H])Oc1cccc(C2(O)CCN(S(=O)(=O)Cc3ccccc3)CC2CN(C)C([2H])([2H])[2H])c1 (stereo not drawn) [I-2hydrochloride]", "Measurement Target": "δOR (Homo sapiens, UniProt P41143)", "δOR binding rate (%)": 10.9}
{"Compound": "[2H]C([2H])([2H])N(CC1CN(S(=O)(=O)Cc2ccccc2)CCC1(O)c1cccc(OC)c1)C([2H])([2H])[2H] (stereo not drawn) [I-4hydrochloride]", "Measurement Target": "δOR (Homo sapiens, UniProt P41143)", "δOR binding rate (%)": 10.1}
{"Compound": "[2H]C([2H])([2H])Oc1cccc([C@]2(O)CCN(C(=O)Cc3cc(F)c(F)cc3F)C[C@H]2CN(C)C([2H])([2H])[2H])c1 [II-12hydrochloride]", "Measurement Target": "δOR (Homo sapiens, UniProt P41143)", "δOR binding rate (%)": 12.0}
{"Compound": "[2H]C([2H])([2H])N(CC1CN(C(=O)Cc2cc(F)c(F)cc2F)CCC1(O)c1cccc(OC)c1)C([2H])([2H])[2H] (stereo not drawn) [I-8hydrochloride]", "Measurement Target": "δOR (Homo sapiens, UniProt P41143)", "δOR binding rate (%)": 8.2}
{"Compound": "[2H]C([2H])([2H])Oc1cccc([C@]2(O)CCN(C(=O)Cc3cc(F)c(F)cc3F)C[C@H]2CN(C([2H])([2H])[2H])C([2H])([2H])[2H])c1 [II-11hydrochloride]", "Measurement Target": "δOR (Homo sapiens, UniProt P41143)", "δOR binding rate (%)": 10.4}
{"Compound": "[2H]C([2H])([2H])N(C[C@@H]1CN(S(=O)(=O)Cc2ccccc2)CC[C@@]1(O)c1cccc(OC)c1)C([2H])([2H])[2H] [II-3hydrochloride]", "Measurement Target": "δOR (Homo sapiens, UniProt P41143)", "δOR binding rate (%)": 12.3}
{"Compound": "[2H]C([2H])([2H])N(C[C@@H]1CN(C(=O)Cc2cc(F)c(F)cc2F)CC[C@@]1(O)c1cccc(OC)c1)C([2H])([2H])[2H] [II-9hydrochloride]", "Measurement Target": "δOR (Homo sapiens, UniProt P41143)", "δOR binding rate (%)": 12.8}
{"Compound": "[2H]C([2H])([2H])Oc1cccc([C@]2(O)CCN(S(=O)(=O)Cc3ccccc3)C[C@H]2CN(C)C([2H])([2H])[2H])c1 [II-6hydrochloride]", "Measurement Target": "δOR (Homo sapiens, UniProt P41143)", "δOR binding rate (%)": 10.5}
{"Compound": "[2H]C([2H])([2H])Oc1cccc(C2(O)CCN(C(=O)Cc3cc(F)c(F)cc3F)CC2CN(C)C([2H])([2H])[2H])c1 (stereo not drawn) [I-6hydrochloride]", "Measurement Target": "δOR (Homo sapiens, UniProt P41143)", "δOR binding rate (%)": 11.6}
{"Compound": "[2H]C([2H])([2H])N(C)C[C@@H]1CN(C(=O)Cc2cc(F)c(F)cc2F)CC[C@@]1(O)c1cccc(OC)c1 [II-7hydrochloride]", "Measurement Target": "δOR (Homo sapiens, UniProt P41143)", "δOR binding rate (%)": 10.6}
{"Compound": "COc1cccc([C@]2(O)CCN(S(=O)(=O)Cc3ccccc3)C[C@H]2CN(C)C)c1.Cl [Example 20 of CN201911076305.X, reference compound]", "Measurement Target": "δOR (Homo sapiens, UniProt P41143)", "δOR binding rate (%)": 10.5}
{"Compound": "[2H]C([2H])([2H])Oc1cccc([C@]2(O)CCN(S(=O)(=O)Cc3ccccc3)C[C@H]2CN(C([2H])([2H])[2H])C([2H])([2H])[2H])c1 [II-5hydrochloride]", "Measurement Target": "δOR (Homo sapiens, UniProt P41143)", "δOR binding rate (%)": 12.9}
